Reference source: patent US6284914A

- tgt: collagenase (MMP-1) (Homo sapiens, UniProt P03956)
- Construct: endogenous in cells; host or cells: human fibroblast
- Sequence (P03956 100-469): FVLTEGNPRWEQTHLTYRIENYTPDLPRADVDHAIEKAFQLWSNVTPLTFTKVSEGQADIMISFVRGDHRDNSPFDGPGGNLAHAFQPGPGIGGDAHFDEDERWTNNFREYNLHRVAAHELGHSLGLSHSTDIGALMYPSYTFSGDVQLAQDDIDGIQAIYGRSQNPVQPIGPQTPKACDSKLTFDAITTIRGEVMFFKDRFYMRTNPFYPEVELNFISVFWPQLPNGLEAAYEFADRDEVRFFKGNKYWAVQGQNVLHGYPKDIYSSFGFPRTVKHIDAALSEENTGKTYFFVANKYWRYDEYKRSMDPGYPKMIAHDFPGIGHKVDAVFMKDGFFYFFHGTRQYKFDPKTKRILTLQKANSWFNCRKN
- test protocol: Assay for Collagenase Inhibitory Activity (MMP-1)
- Format: biochemical
- stated conditions: fluorescein-labeled bovine type I collagen substrate, 35° C., 2 hours, pH 7.5; read-out: Inhibitory activities for matrix metalloproeinases (MMPs), MMP-1, IC50 value
Structures can show the parent of a compound that is named as a salt.
parameter: IC50 (nM)

{"columns": ["compound", "tgt", "IC50 [nM]"],
 "data": [
  ["COc1ccc(NC(=O)[C@H](Cc2ccc(OS(=O)(=O)O)cc2)NC(=O)[C@H](CC(C)C)C(CCCc2ccccc2)C(=O)NO)cc1 (stereo partly drawn) [Example 7, Monosodium Salt]", "collagenase (MMP-1) (Homo sapiens, UniProt P03956)", 8],
  ["CCCOC[C@H](C(=O)N[C@@H](Cc1ccc(OC)cc1)C(=O)NC)[C@H](CSC(C)C)C(=O)NO [Comparative Compound 4, reference compound]", "collagenase (MMP-1) (Homo sapiens, UniProt P03956)", 11]
]}

[a] CNC(=O)[C@H](Cc1ccc(C(=N)N)cc1)NC(=O)[C@H](CC(C)C)C(CCCc1ccccc1)C(=O)NO (single isomer, unassigned)
[b] CNC(=O)[C@H](Cc1ccc(O)cc1)NC(=O)[C@H](CC(C)C)[C@H](CCCc1ccccc1)C(=O)NO [Comparative Compound 2, reference compound]
Problem: Input pair: a , b . Output: entry with lower IC50. Answer by quoting the chosen item's label.
Solution: b

[1] CCC(=N)NCc1ccc(C[C@H](NC(=O)[C@H](CC(C)C)C(CCCc2ccccc2)C(=O)NO)C(=O)NC)cc1 (single isomer, unassigned)
[2] CNC(=O)[C@H](Cc1ccc(OS(=O)(=O)O)cc1)NC(=O)[C@H](CC(C)C)C(CCCc1ccccc1)C(=O)NO (single isomer, unassigned) [Example 3 (Isomer B), Monosodium Salt]
Problem: In terms of reported IC50, does 1 or 2 have the smaller number? Pick one and reply with its label.
Solution: 2

---

- tgt: collagenase (MMP-1) (Homo sapiens)
- Construct: endogenous in cells; host or cells: human fibroblast
- test protocol: Assay for Collagenase Inhibitory Activity (MMP-1)
- Type: biochemical
- stated conditions: fluorescein-labeled bovine type I collagen substrate, 35° C., 2 hours, pH 7.5; read-out: Inhibitory activities for matrix metalloproeinases (MMPs), MMP-1, IC50 value
Counter-ions that a name gives are not always drawn.
parameter: IC50 (nM)

{"columns": ["molecule", "numeric readout"],
 "data": [
  ["CC(C)C[C@@H](C(=O)N[C@@H](Cc1ccc(NC(=N)N)cc1)C(=O)Nc1ccccc1)C(CCCc1ccccc1)C(=O)NO (stereo partly drawn) [Example 19]", 8],
  ["CNC(=O)[C@H](Cc1cccc(OS(=O)(=O)O)c1)NC(=O)[C@H](CC(C)C)C(CCCc1ccccc1)C(=O)NO (single isomer, unassigned) [Example 15, Monosodium Salt]", 8],
  ["CNC(=O)[C@H](Cc1ccc(NC(=N)N)cc1)NC(=O)[C@H](CC(C)C)C(CCCc1ccccc1)C(=O)NO (single isomer, unassigned) [Example 8]", 6]
]}

---

- test protocol: Measurement of Solubility in Water
- Format: physicochemical
- stated conditions: distilled water, 20±5° C., 30 min., checked by eye
Counter-ions that a name gives are not always drawn.
parameter: solubility at 0.5 h

So for CNC(=O)[C@H](Cc1ccc(OP(=O)(O)O)cc1)NC(=O)C(CC(=O)NO)CC(C)C (single isomer, unassigned) [Example 9, Disodium Salt] , the logged solubility at 0.5 h turned out to be > 200 mg/mL

---

- tgt: stromelysin (MMP-3) (Homo sapiens)
- Construct: endogenous in cells
- test protocol: Assay for Stromelysin Inhibitory Activity (MMP-3)
- stated conditions: fluorescein-labeled casein substrate, 37° C., 2 hours, pH 7.8; read-out: Inhibitory activities for matrix metalloproeinases (MMPs), MMP-3, IC50 value
Structures can show the parent of a compound that is named as a salt.
parameter: IC50 (µM)

{"columns": ["molecule", "parameter", "numeric readout"],
 "data": [
  ["CNC(=O)[C@H](Cc1ccc(CNC(=N)c2ccccc2)cc1)NC(=O)[C@H](CC(C)C)C(CCCc1ccccc1)C(=O)NO (stereo partly shown)", "IC50", 0.01]
]}

[I] COc1ccc(NC(=O)[C@H](Cc2ccc(OS(=O)(=O)O)cc2)NC(=O)[C@H](CC(C)C)C(CCCc2ccccc2)C(=O)NO)cc1 (stereo partly shown) [Example 7, Monosodium Salt]
[II] CNC(=O)[C@H](Cc1ccc(CNC(C)=N)cc1)NC(=O)[C@H](CC(C)C)C(CCCc1ccccc1)C(=O)NO (single isomer, unassigned)
[III] CNC(=O)[C@H](Cc1cccc(OS(=O)(=O)O)c1)NC(=O)[C@H](CC(C)C)C(CCCc1ccccc1)C(=O)NO (single isomer, unassigned) [Example 15, Monosodium Salt]
[IV] CNC(=O)[C@H](Cc1ccc(OS(=O)(=O)O)cc1)NC(=O)C(CC(=O)NO)CC(C)C (single isomer, unassigned) [Example 1 (Isomer B), Monosodium Salt]
Problem: Highest IC50 first, then in falling order down to the smallest. Answer format: list of labels, ordered as asked.
Solution: IV, II, I, III
(IV: 0.5 µM, II: 0.015 µM, I: 0.01 µM, III: 0.0058 µM)

---

- tgt: stromelysin (MMP-3) (Homo sapiens, UniProt P08254)
- Construct: endogenous in cells
- Sequence (P08254 100-477): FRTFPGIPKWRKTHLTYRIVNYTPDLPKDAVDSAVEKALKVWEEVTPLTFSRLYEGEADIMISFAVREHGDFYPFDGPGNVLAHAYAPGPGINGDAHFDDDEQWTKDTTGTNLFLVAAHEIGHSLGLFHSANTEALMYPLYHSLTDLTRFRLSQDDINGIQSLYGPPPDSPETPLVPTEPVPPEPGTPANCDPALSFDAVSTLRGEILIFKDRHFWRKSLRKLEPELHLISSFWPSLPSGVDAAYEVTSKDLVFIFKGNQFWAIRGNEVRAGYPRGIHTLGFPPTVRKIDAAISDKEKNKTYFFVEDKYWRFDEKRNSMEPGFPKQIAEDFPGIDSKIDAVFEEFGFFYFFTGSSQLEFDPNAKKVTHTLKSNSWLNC
- test protocol: Assay for Stromelysin Inhibitory Activity (MMP-3)
- stated conditions: fluorescein-labeled casein substrate, 37° C., 2 hours, pH 7.8; read-out: Inhibitory activities for matrix metalloproeinases (MMPs), MMP-3, IC50 value
pIC50: −log10 of the molar value. Counter-ions that a name gives are not always drawn.
parameter: pIC50

Illustrative cases are given below, each with its answer.
{"columns": ["compound", "pIC50"],
 "data": [
  ["CCCOC[C@H](C(=O)N[C@@H](Cc1ccc(OC)cc1)C(=O)NC)[C@H](CSC(C)C)C(=O)NO [Comparative Compound 4, reference compound]", 7.00],
  ["CNC(=O)[C@H](Cc1ccc(CNC(=N)N)cc1)NC(=O)[C@H](CC(C)C)C(CCCc1ccccc1)C(=O)NO (some centres unmarked)", 8.00],
  ["CNC(=O)[C@H](Cc1ccc(S(=O)(=O)O)cc1)NC(=O)[C@H](CC(C)C)C(CSc1cccs1)C(=O)NO (single isomer, unassigned) [Example 5 (Isomer A), Monosodium Salt]", 8.10]
]}

[1] CNC(=O)[C@H](Cc1ccc(CNC(C)=O)cc1)NC(=O)[C@H](CC(C)C)C(CCCc1ccccc1)C(=O)NO (some centres unmarked)
[2] CNC(=O)[C@H](Cc1ccc(NC(=N)N)cc1)NC(=O)[C@H](CC(C)C)C(CCCc1ccccc1)C(=O)NO (single isomer, unassigned)
Problem: For 1 and 2 , which recorded pIC50 is lower? Identify your pick by its label.
Solution: 1
(1: 8.00, 2: 8.22)
